Attribution: patent US9550782B2

Target: human recombinant adrenergic α2A receptor (Homo sapiens, UniProt P08913)
Construct: expressed in transfected cells; host or cells: insect Sf9 cells
Sequence (P08913 1-465): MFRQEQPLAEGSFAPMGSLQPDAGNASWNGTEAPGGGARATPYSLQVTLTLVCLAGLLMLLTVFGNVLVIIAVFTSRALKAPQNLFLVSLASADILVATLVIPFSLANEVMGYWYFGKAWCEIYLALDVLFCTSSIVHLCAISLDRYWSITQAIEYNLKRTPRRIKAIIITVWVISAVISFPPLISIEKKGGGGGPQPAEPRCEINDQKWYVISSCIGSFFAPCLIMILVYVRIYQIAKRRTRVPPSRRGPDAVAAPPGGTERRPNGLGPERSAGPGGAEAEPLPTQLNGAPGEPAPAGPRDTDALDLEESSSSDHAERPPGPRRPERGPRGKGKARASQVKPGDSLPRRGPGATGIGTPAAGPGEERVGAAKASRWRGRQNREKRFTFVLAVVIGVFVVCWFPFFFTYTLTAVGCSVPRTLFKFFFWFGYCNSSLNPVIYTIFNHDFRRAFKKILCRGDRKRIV
Experiment: Radioligand binding, adrenergic α2A ([3H]MK-912)
Conditions: 0.1 μM compound; [3H]MK-912; 0.1 µM
READOUT_TYPE: Percentage inhibition of ligand binding, Adrenergic α2A (%)

Observe how each entry below is paired with its result.
Cc1ccc2c(c1)c1c(n2CC(N)c2ccncc2)CC2CCC1N2C (single isomer, unassigned) [155a]    −1
Cc1ccc2c(c1)c1c(n2CC(O)c2ccncc2Cl)CCN(C)C1 (single isomer, unassigned) [135a]    4

(a) Cc1cnc2c(c1)c1c(n2CC(N)c2ccc(C#N)cc2)CCNC1 (single isomer, unassigned) [160b]
(b) Cc1ccc2c(c1)c1c(n2CC(C)(OC(=O)C(C)C)c2cccnc2)CCN(C)C1 (single isomer, unassigned) [146a]
Challenge: Of the two listed items, which has the higher Percentage inhibition of ligand binding, Adrenergic α2A? First: a Second: b In your reply, give the label of the chosen option.
Response given: a
